assaySystem: ROCK1 (Homo sapiens)
Sequence (Q13464 whole entry): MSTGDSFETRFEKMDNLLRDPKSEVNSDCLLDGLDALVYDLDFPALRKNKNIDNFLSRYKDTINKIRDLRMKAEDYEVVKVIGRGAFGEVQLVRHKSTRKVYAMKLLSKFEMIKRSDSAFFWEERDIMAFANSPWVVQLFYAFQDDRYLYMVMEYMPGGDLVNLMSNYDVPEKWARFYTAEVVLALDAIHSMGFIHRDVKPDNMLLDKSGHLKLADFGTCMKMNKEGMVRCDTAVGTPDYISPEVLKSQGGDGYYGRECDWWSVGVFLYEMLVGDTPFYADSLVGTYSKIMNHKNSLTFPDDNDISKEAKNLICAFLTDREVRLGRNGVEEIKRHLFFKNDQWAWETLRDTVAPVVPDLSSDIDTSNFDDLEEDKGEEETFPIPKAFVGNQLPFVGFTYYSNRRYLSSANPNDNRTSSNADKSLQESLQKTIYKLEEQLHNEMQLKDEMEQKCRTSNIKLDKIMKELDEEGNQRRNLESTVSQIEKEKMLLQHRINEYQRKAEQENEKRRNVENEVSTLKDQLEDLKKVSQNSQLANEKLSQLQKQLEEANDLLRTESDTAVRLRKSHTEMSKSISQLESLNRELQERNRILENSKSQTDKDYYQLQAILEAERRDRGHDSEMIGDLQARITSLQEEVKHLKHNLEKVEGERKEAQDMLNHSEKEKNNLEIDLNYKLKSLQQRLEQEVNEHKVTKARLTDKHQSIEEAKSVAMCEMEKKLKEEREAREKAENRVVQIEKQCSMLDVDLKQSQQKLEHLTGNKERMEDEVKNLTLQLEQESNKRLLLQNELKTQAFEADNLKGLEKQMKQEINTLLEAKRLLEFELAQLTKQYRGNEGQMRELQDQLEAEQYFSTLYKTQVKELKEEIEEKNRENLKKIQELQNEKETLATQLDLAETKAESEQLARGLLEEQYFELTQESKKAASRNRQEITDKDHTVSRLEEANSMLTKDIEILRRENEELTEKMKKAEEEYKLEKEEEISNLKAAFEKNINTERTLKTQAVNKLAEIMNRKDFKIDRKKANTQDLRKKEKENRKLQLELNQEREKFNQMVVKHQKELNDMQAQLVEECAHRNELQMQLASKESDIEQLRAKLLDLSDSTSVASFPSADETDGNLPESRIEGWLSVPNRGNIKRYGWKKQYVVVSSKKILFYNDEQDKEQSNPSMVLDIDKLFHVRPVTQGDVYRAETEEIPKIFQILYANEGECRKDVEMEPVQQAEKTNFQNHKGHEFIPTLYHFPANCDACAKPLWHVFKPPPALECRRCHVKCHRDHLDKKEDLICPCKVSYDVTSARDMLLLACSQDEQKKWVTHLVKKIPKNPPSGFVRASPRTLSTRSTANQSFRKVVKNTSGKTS
pIC50: −log10 of the molar value.
measureName: pIC50

>  <molecule>
Cn1nc(-c2ccc(-n3cnc(C4CC4)c3)cc2)nc1Nc1ccc2c(c1)CNC2=O

>  <value>
< 5.00

$$$$
>  <molecule>
CCn1nc(-c2ccc(C3CCN(C)CC3)c(C)c2)nc1Nc1cc2c(cc1C)C(=O)NC2C (centres unmarked)

>  <value>
< 5.00

$$$$
>  <molecule>
CCn1nc(-c2ccc(-n3cnc(C4CC4)c3)cc2)nc1Nc1ccc2c(c1)CNC2=O

>  <value>
5.00 to 5.52

$$$$
>  <molecule>
CCn1nc(-c2ccc(-c3cccnc3)cc2)nc1Nc1ccc2c(c1)CNC2=O

>  <value>
5.00 to 5.52

$$$$
>  <molecule>
CCn1nc(-c2ccc(-c3cnc(C4CC4)n3C)cc2)nc1Nc1cc2c(cc1C)C(=O)NC2C (centres unmarked)

>  <value>
5.00 to 5.52

$$$$
>  <molecule>
Cc1nc(C2CC2)cn1-c1ccc(-c2nc(Nc3ccc4c(c3)CNC4=O)n(C)n2)cc1

>  <value>
< 5.00

$$$$
>  <molecule>
CCn1nc(-c2ccc(C3CCN(CC(F)(F)F)C3)c(C)c2)nc1Nc1cc2c(cc1C)C(=O)NC2C (centres unmarked)

>  <value>
< 5.00

$$$$
>  <molecule>
CCn1nc(-c2cc(C)c(-c3cn(C)c(C4CC4)n3)cc2F)nc1Nc1ccc2c(c1)C(C)NC2=O (centres unmarked)

>  <value>
5.00 to 5.52

$$$$
